# System Name: T1, GST-Shank 1 PDZ domain 1 (Homo sapiens (Human)), Q9UPX8
# T1 chain: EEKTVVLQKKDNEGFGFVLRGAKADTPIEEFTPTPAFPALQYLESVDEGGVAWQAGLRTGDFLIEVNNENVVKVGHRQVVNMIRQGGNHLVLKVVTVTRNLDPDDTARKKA
# Protocol Text: G assay titration, PDZ 1 ug/ml

Binder | Kd [µM]
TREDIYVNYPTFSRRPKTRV (modifications not checked) [DNAM-1] | 5
